Test: BSK_3C_TissueFactor: BioMAP Diversity Plus: 3C Assay for Tissue Factor Biomarker Activity (AID 2282997)
Conditions: BioMAP 3C HUVEC, tissue factor biomarker readout; actives raise or lower the signal
The source made the active and inactive calls. The calls were made as follows: active = hit-call score of the fitted dose curve at least 0.9, where 1 is the maximum; inactive = score below 0.9.
One label from this list, please: active, inactive

Below, 4 compounds whose answers are already recorded.
CCCCOC(=O)CCCCCCCC(=O)OCCCC: inactive
C=C(C)C(=O)OCCOCCOCCOCCOC(=O)C(=C)C: inactive
CC(=O)Nc1ccc(C(=O)CCl)cc1: active
CC(=O)C1(C)CC2=C(CCCC2(C)C)CC1C (configuration not stated): active

Q: // return assay outcome for CCCCN(CCCC)C(=O)N(CCCC)CCCC
Ans: active

Q: // return assay outcome for CC=Cc1ccc(OCC)c(O)c1
Ans: inactive

Q: // return assay outcome for CC(C)(N=C=O)c1cccc(C(C)(C)N=C=O)c1
Ans: inactive
